Source listed as ChEMBL document CHEMBL1157539.

Tested on: HepG2
Experiment: GSK_TCMDC: Percent inhibition of human HepG2 cell line. Test compounds present at 10uM.
Type: functional
EXPERIMENTAL_READOUT: Inhibition (%)
Your answer should be a plain number; it is taken to be in %.

Challenge: So what does the record say about Inhibition for COc1cc(OC)c(OC)cc1CN1CCC2(CC1)CN(Cc1ccc(Cl)c(Cl)c1)C(=O)O2 ?
Response given: 8

Challenge: What about this molecule? CCOC(=O)c1cn(CC)c2cc(N(C)CCc3ccc(OC)c(OC)c3)c(F)cc2c1=O.Cl
Response given: 9

Challenge: What about this molecule? O=C(Nc1ccc(-c2ccc(-c3nc4ccccc4[nH]3)s2)cc1)Nc1ccsc1
Response given: 25

Challenge: What about this molecule? Cc1cccc(-n2c(=O)c3c4c(sc3n3c(SCCC(C)C)nnc23)CCCC4)c1
Response given: 0

Challenge: What about this molecule? O=C(Nc1ccc2ccccc2n1)c1ccccc1-c1ccccc1
Response given: 14

Challenge: What about this molecule? COc1cccc2c(N/N=C/c3ccc([N+](=O)[O-])cc3)ccnc12
Response given: 25
